- Test system: A498
- test.method.notes: NCI tumour cell line growth inhibition, 48 h
Activity calls are given as the source filed them. Rule as the data show it: active = GI50 up to about 1.1 µM and inactive = higher.
# GI50 per entry

Examples with their reported GI50 follow.
molecule	GI50
O=C1c2cc3ccccc3cc2C2(c3ccc(Cl)cc3)NCCN12 (centres undefined)	77.3 µM (inactive)
CC(C)(C)c1cc(OCc2nn3c(Cc4ccccc4)nnc3s2)c(Cl)cc1OCc1nn2c(Cc3ccccc3)nnc2s1	15 µM (inactive)
CC1(C)CC(=O)c2c(N)n[nH]c2C1	> 100 µM (inactive)
CC1CN=C(N(C(=O)Nc2ccc(Cl)cc2)c2cccc(Cl)c2)S1 (centres undefined)	16.9 µM (inactive)
O=C(NCc1cccnc1)C(=O)NCc1cccnc1	> 100 µM (inactive)

GI50 measured on "Cc1[nH]n(C2=NCCN2)c(=O)c1Cc1ccccc1" = > 100 µM (inactive)

The recorded GI50 for "Cc1cc(OCc2nnc3sc(NC(=O)c4ccccc4)nn23)ccc1Cl" is 27.2 µM (inactive)

Reported GI50 of "COc1ccc(/C=C\c2cc(OC)c(O[Si](C)(C)C(C)(C)C)c(OC)c2)cc1" : 21 µM (inactive)

Reported GI50 for CCOC(=O)C(C)c1nc2ccc(C(F)(F)F)cc2[nH]c1=O (centres undefined) was 34 µM (inactive)

Recorded GI50 (molecule C/C(=N/NC(=O)C[N+](C)(C)C)C(CN(C)C)C(=O)Nc1ccccc1 (centres undefined) ): > 100 µM (inactive)

Notebook: COC(=O)/C(=N\Nc1nnc(C)n1N)C(C#N)c1ccc(Cl)cc1 (centres undefined) , GI50 read as > 100 µM (inactive)

The molecule listed as O=P1(Oc2ccccc2)NCc2ncccc2O1 (centres undefined) shows GI50 equal to > 100 µM (inactive)

Entry "Cc1cccc2c(=O)cc(-c3ccccc3)[nH]c12" , GI50 reported as 5.3 µM (inactive)

# molecule CC(NC1=NCCO1)c1ccccc1Cl (centres undefined) ; its GI50 = > 100 µM (inactive)

GET /value?item= N#CC1CC(c2ccccc2)Nc2cc(Cl)ccc2N1 (centres undefined) &field=GI50 returns > 100 µM (inactive)
